system: WT HIV-1; test: Anti-HIV-1 activity in MT-4 cells infected with HIV-1; type: cell-based; conditions: Human immunodeficiency virus 1, MT4
readoutLabel: log10 of EC50 (log10 of the value in µM)
Hey, these are logged values: log10 of EC50, µM being the unit before logging.

# compound, studySystem, log10 of EC50
rows = [
    ("Cn1c(Cn2ccc(C(F)(F)F)c(Oc3cnc(Cl)c(Cl)c3)c2=O)n[nH]c1=O", "WT HIV-1", 0.31),
    ("Cc1ccc(Oc2c(C(F)(F)F)ccn(Cc3n[nH]c(=O)n3C)c2=O)cn1", "WT HIV-1", 1.32),
    ("Cn1c(Cn2ccc(C(F)(F)F)c(Oc3cccc4nccnc34)c2=O)n[nH]c1=O", "WT HIV-1", 0.91),
    ("Cn1c(Cn2ccc(C(F)(F)F)c(Oc3ccc4cnccc4c3)c2=O)n[nH]c1=O", "WT HIV-1", 1.05),
    ("Cn1c(Cn2ccc(C(F)(F)F)c(Oc3cc(Cl)cc(C#N)c3)c2=O)n[nH]c1=O [DOR, doravirine, reference compound]", "WT HIV-1", -1.89),
]

Continue with the next compound.
Input line: Consider the compound Cc1cc(C#N)cc(C)c1Oc1nc(Nc2ccc(C#N)cc2)nc(N)c1Br [ETR, etravirine, reference compound] and give its measured log10 of EC50.
Output line: -2.54

---

system: WT HIV-1; assay: Anti-HIV-1 activity in MT-4 cells infected with HIV-1; assay type: cell-based; conditions: selectivity index, the ratio of CC50/EC50, WT HIV-1
SI overview

# molecule, readoutLabel, result
data = [
    ("Cn1c(Cn2ccc(C(F)(F)F)c(Oc3cccc4nccnc34)c2=O)n[nH]c1=O [7y]", "SI", 27.30),
    ("Cn1c(Cn2ccc(C(F)(F)F)c(Oc3cncc4ccccc34)c2=O)n[nH]c1=O [7u]", "SI", 309.52),
    ("Cn1c(Cn2ccc(C(F)(F)F)c(Oc3cccc4cnccc34)c2=O)n[nH]c1=O [7w]", "SI", "12,497.73"),
    ("Cn1c(Cn2ccc(C(F)(F)F)c(Oc3ccc(C(F)(F)F)nc3)c2=O)n[nH]c1=O [7r]", "SI", ">1"),
]

Input line: Consider the molecule Cc1cc(Oc2c(C(F)(F)F)ccn(Cc3n[nH]c(=O)n3C)c2=O)c2c(Cl)c(F)ccc2n1 [7af] and give its measured SI.
Output line: 2.45

Input line: What do you get for Cn1c(Cn2ccc(C(F)(F)F)c(Oc3cccnc3)c2=O)n[nH]c1=O [7s] ?
Output line: >278

Input line: What do you get for Cn1c(Cn2ccc(C(F)(F)F)c(Oc3cccc4ncccc34)c2=O)n[nH]c1=O [7v] ?
Output line: 62.10

Input line: What do you get for Cn1c(Cn2ccc(C(F)(F)F)c(Oc3cncc(Cl)c3)c2=O)n[nH]c1=O [7a] ?
Output line: >563

---

test system: WT HIV-1; assay: Anti-HIV-1 activity in MT-4 cells infected with HIV-1; format: cell-based; settings: Human immunodeficiency virus 1, MT4
EC50 overview

// below: answered compounds
# compoundStructure, readoutLabel, result
data = [
    ("Cn1c(Cn2ccc(C(F)(F)F)c(Oc3ccc(C(F)(F)F)nc3)c2=O)n[nH]c1=O", "EC50", "> 250 µM"),
    ("Cc1ccc(Oc2c(C(F)(F)F)ccn(Cc3n[nH]c(=O)n3C)c2=O)c(C)n1", "EC50", "> 250 µM"),
    ("Cc1ncc(Oc2c(C(F)(F)F)ccn(Cc3n[nH]c(=O)n3C)c2=O)cn1", "EC50", "> 250 µM"),
]

Input line: Consider the compound Cn1c(Cn2ccc(C(F)(F)F)c(Oc3ccc4cccnc4c3Br)c2=O)n[nH]c1=O and give its measured EC50.
Output line: > 164 µM

---

tested on: WT HIV-1; assay: Anti-HIV-1 activity in MT-4 cells infected with HIV-1; format: cell-based; conditions: Human immunodeficiency virus 1, MT4
pEC50: −log10 of the molar value.
readoutLabel: pEC50

// below: answered compounds
# compoundStructure, studySystem, pEC50
measured = [
    ("Cn1c(Cn2ccc(C(F)(F)F)c(Oc3cc(Cl)c4ncccc4c3)c2=O)n[nH]c1=O", "WT HIV-1", "< 3.72"),
    ("Cc1cc(Oc2c(C(F)(F)F)ccn(Cc3n[nH]c(=O)n3C)c2=O)c2cccc(F)c2n1", "WT HIV-1", "< 3.66"),
    ("Cc1cc(Oc2c(C(F)(F)F)ccn(Cc3n[nH]c(=O)n3C)c2=O)c2cccc(C)c2n1", "WT HIV-1", "< 3.82"),
]

Continue with the next compound.
Input line: Consider the compound Cn1c(Cn2ccc(C(F)(F)F)c(Oc3cnc4ccccc4c3)c2=O)n[nH]c1=O and give its measured pEC50.
Output line: < 3.60
